Values compiled from ChEMBL document CHEMBL1127716.

- system: Prolyl endopeptidase (Sus scrofa)
- Sequence (P23687 whole entry): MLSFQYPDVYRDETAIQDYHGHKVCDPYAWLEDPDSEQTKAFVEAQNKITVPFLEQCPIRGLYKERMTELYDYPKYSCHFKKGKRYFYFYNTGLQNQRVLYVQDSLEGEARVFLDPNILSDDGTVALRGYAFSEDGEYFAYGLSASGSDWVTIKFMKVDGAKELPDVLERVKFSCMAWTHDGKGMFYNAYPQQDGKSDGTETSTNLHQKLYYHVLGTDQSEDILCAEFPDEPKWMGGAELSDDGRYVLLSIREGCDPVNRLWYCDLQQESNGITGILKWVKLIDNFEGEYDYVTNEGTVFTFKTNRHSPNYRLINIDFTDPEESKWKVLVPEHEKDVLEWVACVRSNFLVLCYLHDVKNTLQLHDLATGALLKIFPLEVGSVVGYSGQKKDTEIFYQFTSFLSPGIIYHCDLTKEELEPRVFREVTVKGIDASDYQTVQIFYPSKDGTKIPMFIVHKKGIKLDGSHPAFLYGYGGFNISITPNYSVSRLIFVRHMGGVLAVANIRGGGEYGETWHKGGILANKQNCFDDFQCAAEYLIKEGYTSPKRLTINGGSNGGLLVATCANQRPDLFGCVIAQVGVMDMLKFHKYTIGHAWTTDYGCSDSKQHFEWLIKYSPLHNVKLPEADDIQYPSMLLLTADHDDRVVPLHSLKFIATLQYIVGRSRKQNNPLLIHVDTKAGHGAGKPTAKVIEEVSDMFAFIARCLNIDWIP
parameter_measured: pIC50
One number for each entry, as −log10 of the molar value.

Short answer for O=C(c1cscn1)[C@@H]1CCCN1C(=O)[C@@H]1CCCN1C(=O)CCCc1ccccc1 : pIC50 was 8.23
